test system: P. berghei; assay: Suppressive blood schizontocidal test, single subcutaneous dose, P. berghei in mice; type: in vivo, mouse; conditions: single subcutaneous dose 2 mg/kg, 72 h after infection
measured.quantity: Mice surviving 60 days/Mice infected and treated

Example entries begin here.
{"compound": "O=C(CC1NCCC1O)Cn1cnc2cccnc2c1=O (centres unmarked)", "system.under.test": "P. berghei", "result": "5/5"}
{"compound": "O=C(CC1NCCC1O)Cn1cnc2cccc(F)c2c1=O (centres unmarked)", "system.under.test": "P. berghei", "result": "5/5"}
{"compound": "O=C(CC1NCCC1O)Cn1cnc2cccc(C(F)(F)F)c2c1=O (centres unmarked)", "system.under.test": "P. berghei", "result": "5/5"}
{"compound": "O=C(CC1NCCC1O)Cn1cnc2ccc(F)c(F)c2c1=O (centres unmarked)", "system.under.test": "P. berghei", "result": "5/5"}

compound O=C(CC1NCCC1O)Cn1cnc2ccncc2c1=O (centres unmarked) , Mice surviving 60 days/Mice infected and treated observed: 5/5

* * *

# Mice surviving 60 days/Mice infected and treated per record follows
System: Plasmodium berghei KBG-173
Assay: Blood schizontocidal test, oral dosing, P. berghei in mice
Format: in vivo, mouse
Conditions: oral dose 4.0 mg/kg/day (total dose 12 mg/kg), days 3-5 postinfection
Experimental: Drugs were mixed in 0.5% hydroxycellulose 0.1% Tween 80 and administered orally b.i.d. on days 3, 4 and 5 postinfection. CD-1 male or female mice, 5 weeks of age, were infected with 5×10^4 parasitized erythrocytes of Plasmodium berghei KBG-173 mm strain. Blood films were taken on day +6 and weekly thereafter until day +60. Parasitemias were calculated and SD90 value (dose suppressing 90% of the parasites in treated groups compared with the infected non-treated controls) on day +6 postinfection. […]

{"compound": "O=C(CC1NCCC1O)Cn1cnc2ccncc2c1=O (stereo not shown) [Compound II]", "system.under.test": "Plasmodium berghei KBG-173", "result": "7/7"}

compound O=C(CC1NCCC1O)Cn1cnc2cccc(C(F)(F)F)c2c1=O (stereo not shown) [Compound V] , Mice surviving 60 days/Mice infected and treated observed: 7/7

compound O=C(CC1NCCC1O)Cn1cnc2cccc(F)c2c1=O (stereo not shown) [Compound III] , Mice surviving 60 days/Mice infected and treated observed: 7/7

compound CCN(CC)CCCC(C)Nc1ccnc2cc(Cl)ccc12 (stereo not shown) [Chloroquine, reference compound] , Mice surviving 60 days/Mice infected and treated observed: 2/7

compound O=C(CC1NCCC1O)Cn1cnc2ccc(F)c(F)c2c1=O (stereo not shown) [Compound IV] , Mice surviving 60 days/Mice infected and treated observed: 7/7

compound O=C(C[C@H]1NCCC[C@@H]1O)Cn1cnc2ccccc2c1=O [Febrifugine, reference compound] , Mice surviving 60 days/Mice infected and treated observed: 5/7

compound O=C(CC1NCCC1O)Cn1cnc2cccnc2c1=O (stereo not shown) [Compound I] , Mice surviving 60 days/Mice infected and treated observed: 7/7

* * *

# Mice surviving 60 days/Mice infected and treated per record follows
Tested on: P. berghei
Test: Suppressive blood schizontocidal test, single subcutaneous dose, P. berghei in mice
Assay type: in vivo, mouse
Settings: single subcutaneous dose 1 mg/kg, 72 h after infection
Experimental: Mice were treated with a single dose of the compound administered subcutaneously 72 h. after infection. Number of cures is the number of mice surviving, out of five, 60 days postinfection.

Example entries begin here.
{"compound": "O=C(CC1NCCC1O)Cn1cnc2cccnc2c1=O (centres unmarked)", "result": "4/5"}
{"compound": "O=C(CC1NCCC1O)Cn1cnc2cccc(F)c2c1=O (centres unmarked)", "result": "4/5"}
{"compound": "O=C(CC1NCCC1O)Cn1cnc2ccc(F)c(F)c2c1=O (centres unmarked)", "result": "4/5"}
{"compound": "O=C(CC1NCCC1O)Cn1cnc2ccncc2c1=O (centres unmarked)", "result": "4/5"}

# ---- query compound ----
Reported P. berghei Mice surviving 60 days/Mice infected and treated for item O=C(CC1NCCC1O)Cn1cnc2cccc(C(F)(F)F)c2c1=O (centres unmarked) was 4/5
